Test: Surface tension
Assay type: physicochemical
Details: solvents used in Comparative Examples
Description: The present invention will now be more specifically described with reference to preferred embodiments, but the invention is not intended to be limited to the following embodiments. In the present specification, an aqueous ink for ink jet may be simply called “ink”. Physical property values are values determined at normal temperature (25° C.) unless otherwise noted. […]
Some molecules, each annotated with its measured Surface tension.
measurement.label: Surface tension (mN/m)

                                   molecule  units  observed
0         O=CCc1ccccc1 [Phenylacetaldehyde]   mN/m      35.9
1         CC(=O)OCc1ccccc1 [Benzyl acetate]   mN/m      35.9
2  C=CC(C)(O)CCC=C(C)C (centres unmarked) [Linalool]   mN/m      26.6
3          COc1ccc(C=O)cc1 [p-Anisaldehyde]   mN/m      37.2
4   CCCCCO [Example 1-Pentanol, 1-Pentanol]   mN/m      25.5

###

Assay: Vapor pressure at 20° C.
Format: physicochemical
Details: solvents used in Comparative Examples
measurement.label: Vapor pressure (mmHg)

In [3]: df
Out[3]:
                                   compound  observed
0          COc1ccc(C=O)cc1 [p-Anisaldehyde]       0.0
1         CC(=O)OCc1ccccc1 [Benzyl acetate]       0.2
2  C=CC(C)(O)CCC=C(C)C (centres unmarked) [Linalool]       0.2
3   CCCCCO [Example 1-Pentanol, 1-Pentanol]       1.5
4         O=CCc1ccccc1 [Phenylacetaldehyde]       0.4

###

Each record here notes measured Surface tension.
Assay: Surface tension
Type: physicochemical
measurement.label: Surface tension (mN/m)

>>> df
                                   compound  units  observed
0  CC(O)COc1ccccc1 (stereo not shown) [1-Phenoxy-2-propanol]   mN/m      37.7
1           OCCOc1ccccc1 [2-Phenoxyethanol]   mN/m      40.0
2        OCCCCc1ccccc1 [4-Phenyl-1-butanol]   mN/m      38.3
3  CC(O)Cc1ccccc1 (stereo not shown) [1-Phenyl-2-propanol]   mN/m      37.3
